Test: Clearance in rat at 2 mg/kg, iv
Format: ADME, organism-based
Set-up: dose 2 mg/kg, route intravenous
Details: in vivo
PARAMETER_MEASURED: clearance (mL/min/kg)

{"COMPOUND": "CCc1cccc(CC)c1-c1cc(OC)c2c(n1)CCCC2Nc1cc(OC)ccc1C (stereo unspecified)", "RECORDED_MEASUREMENT": 21}

* * *

Test: Oral bioavailability in rat at 10 mg/kg
Assay type: ADME, organism-based
Conditions: in vivo

{"COMPOUND": "CCc1cccc(CC)c1-c1cc(OC)c2c(n1)CCCC2Nc1cc(OC)ccc1C (stereo unspecified)", "bioavailability / %": 21}
